# assayRemarks: Antiparasitic activity against Taenia solium
# Type: functional
endpoint: EC

compound=CC[C@H](CC[C@@H](C)[C@H]1CC[C@]2(C)[C@]1(C)CC[C@@H]1[C@@]3(C)CC[C@H](O[C@@H]4O[C@H](CO)[C@@H](O)[C@H](O)[C@H]4O)CC3=CC[C@]12C)C(C)C endpoint=EC measuredresult="17.34 mM"
compound=CCCCCCCCCCCCCCCCC(=O)OC[C@@H](O)CO endpoint=EC measuredresult="29.5 mM"
compound=CC(C)CCCCCCCCCCCCCC(=O)OC[C@@H](O)CO endpoint=EC measuredresult="29.5 mM"
compound="C=C(C)[C@@H]1CC[C@]2(C(=O)O)CC[C@]3(C)[C@H](CC[C@@H]4[C@@]5(C)CC[C@H](O)C(C)(C)[C@@H]5CC[C@]43C)[C@@H]12 [BETULINIC ACID]" endpoint=EC measuredresult="21.9 mM"
compound=CCCCCCCCCCCCCCCCCCCCCC(=O)OC[C@@H](O)CO endpoint=EC measuredresult="23.24 mM"
